What IC50 was measured for each of the following?
study_target: T1, human TNFα (human, UniProt P01375 77-233)
T1 construct: also called TAR1; TNF alpha
T1 sequence (P01375 77-233 limits assumed): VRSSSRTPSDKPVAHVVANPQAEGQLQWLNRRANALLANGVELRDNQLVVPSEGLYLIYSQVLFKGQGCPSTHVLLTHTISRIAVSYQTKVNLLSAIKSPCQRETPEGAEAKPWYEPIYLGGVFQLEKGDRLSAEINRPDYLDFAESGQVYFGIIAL
protocol_notes: TNF receptor assay (ELISA): inhibition of TNF binding to plate-bound TNF receptor 1-Fc

binder	IC50
TAR1-5-19CH/dAb3CK (Fab, V domains shown, also called TAR1-5-19CH d3CK) V domain 1: DIQMTQSPSSLSASVGDRVTITCRASQSIDSYLHWYQQKPGKAPKLLIYSASELQSGVPSRFSGSGSGTDFTLTISSLQPEDFATYYCQQVVWRPFTFGQGTKVEIK V domain 2: DIQMTQSPSSLSASVGDRVTITCRASQSVKEFLWWYQQKPGKAPKLLIYMASNLQSGVPSRFSGSGSGTDFTLTISSLQPEDFATYYCQQKFKLPRTFGQGTKVEIK	~3 nM

Please turn your attention to the following entry.
Quick one: IC50 of TAR1-5-19CH/dAb1 CK (Fab, V domains shown, also called TAR1-5-19CH d1CK) V domain 1: DIQMTQSPSSLSASVGDRVTITCRASQSIDSYLHWYQQKPGKAPKLLIYSASELQSGVPSRFSGSGSGTDFTLTISSLQPEDFATYYCQQVVWRPFTFGQGTKVEIK V domain 2: DIQMTQSPSSLSASVGDRVTITCRASQSIYDALEWYQQKPGKAPKLLIYTASRLQSGVPSRFSGSGSGTDFTLTISSLQPEDFATYYCQQVMQRPVTFGQGTKVEIK ?
~6 nM
